Value source: paper PMC9743148

experiment: clinical; settings: human, plasma, oral, 20 mg, Cmax, 20 mg q.d., cycle 1 Day 21, mean
property-label: Cmax (ng/mL)
Answer format: numeric, ng/mL implied, no suffix.

[Q] Tell me the measured Cmax of C=CC(=O)N1CC[C@H](n2nc(C#Cc3cc(OC)cc(OC)c3)c3c(N)ncnc32)C1 [futibatinib] , please.
[A] 171
